Recorded values, source PubChem BioAssay (NCI).

Entries and their growth inhibition values follow.
- test.details: NCI Yeast Anticancer Drug Screen. Data for the sgs1 strain (AID 173);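 further: 0% = growth of vehicle-only control cultures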
- measurement.parameters: S. cerevisiae sgs1 mutant, at 3.7 µM, stronger effect = higher value
Compounds without any hit were thinned out: in the full panel of roughly 79,000, 15% have a hit.
measured.metric: growth inhibition (%)

compound	measured.metric	measurement.units	recorded.measurement
c1ccc2c(c1)C(=NCCCN1CCCCCC1)c1cccn1-2	growth inhibition	%	-2
C/C(=N\NC(=S)SCc1ccccc1)c1ccccn1	growth inhibition	%	46
Cc1ccc(Cl)c2[nH]c(-c3ccccc3)cc(=O)c12	growth inhibition	%	-4
N#CC(C(=O)Nc1ccccc1)C1=C(Cl)C(=O)c2ccccc2C1=O (stereo not given)	growth inhibition	%	41
CCN(CC)CCN1C(=O)c2cccc3cc(OC)cc(c23)C1=O	growth inhibition	%	40
COc1ccccc1/C=C1\Sc2scc(-c3cccc([N+](=O)[O-])c3)[n+]2C1=O	growth inhibition	%	89
Cc1cc2c(cc1C(=O)CCC(=O)O)CC1(C2)Cc2cc(C)c(C(=O)CCC(=O)O)cc2C1	growth inhibition	%	7
O=C1Nc2ccccc2/C1=C/COc1ccccc1	growth inhibition	%	11
C[Si](C)(C)CNC(=O)OCc1ccccc1	growth inhibition	%	-1
O=[N+]([O-])c1ccc2nc3ccccc3cc2c1	growth inhibition	%	13
CC(/C=C/c1ccc(Cl)cc1)=N\NC(=S)NCC(C)C	growth inhibition	%	-8
O=C1CSc2cc([N+](=O)[O-])ccc2N1	growth inhibition	%	19
Cc1c(Cl)ccc2c1S(=O)(=O)c1cccc(Cl)c1-2	growth inhibition	%	-19
FC(F)(F)c1nc2nc(Cl)c(Cl)nc2n1CCCN1CCOCC1	growth inhibition	%	9
CCOC(=O)c1cc(-c2ccc(Cl)cc2)c([N+](=O)[O-])n1C	growth inhibition	%	29
[O-][n+]1c2ccc(O)cc2nc2ccc(Br)cc21	growth inhibition	%	8
O=CC=C(c1ccccc1)c1ccccc1	growth inhibition	%	4
O=C1CSC(/C=C/c2ccccc2)N1c1ccc(-c2ccc(-n3c(-c4ccccc4)nc4ccccc4c3=O)cc2)cc1 (stereo not given)	growth inhibition	%	-2
Fc1ccc(NC(=S)SCc2ccc(Cl)c(Cl)c2)cc1F	growth inhibition	%	-1
CCCCCCCCNC(=O)C1=C(C)NC(C)=C(C(=O)NCCCCCCCC)C1	growth inhibition	%	3

----------
- test.details: NCI Yeast Anticancer Drug Screen. Data for the bub3 strain (AID 167)
- measurement.parameters: S. cerevisiae bub3 mutant strain, at 100.0 µM
This is part of a sample that, as a whole, favours compounds with a hit. Of some 79,000 tested, about 15% had one in any assay. Calls of active or inactive are those of the source. Cut-off read from the data, not from the text of the source: active = growth inhibition above about 70%; inactive = the rest.
Outcome codes: 1 (active), -1 (inactive)

compound	group.label
O=C(O)c1ccccc1NC(=S)c1ccccc1	1
CC(C)/C(Cl)=N\OC(=O)Nc1ccccc1F	1
COc1ccc(/C(C)=N/OC(=O)c2c(-c3ccccc3Cl)noc2C)cc1CN1CCOCC1	-1
CC1(C)C(=O)OC(n2cc(F)c(=O)[nH]c2=O)C1=O (stereo unspecified)	-1
CN(C)CCOc1ccc2c(c1)C/C(=C/c1ncc([N+](=O)[O-])n1C)C2=O	-1
C=C1CC(Cn2cc(Br)c(=O)[nH]c2=O)(c2ccc(-c3ccccc3)cc2)OC1=O (stereo unspecified)	1
O=C(NCCCCCCCN1CCCCCCC1)C(C1CCCCC1)C1CCCCC1	1
O=C(N=Nc1cc(Cl)ccc1Cl)NNc1cc(Cl)ccc1Cl	-1
O=C(Nc1ccc(Cl)cc1)OCC#CCCl	-1
CC1OCC2OC(C)OC(C3C4=C(CC(C)(C)CC4=O)OC4=C3C(=O)CC(C)(C)C4)C2O1 (stereo unspecified)	-1
Cc1cc(CO)c(O)c(CNCc2cc(C)cc(CO)c2O)c1	1
O=C1C(Nc2ccccc2)=C(Oc2ccccc2)C(=O)c2ccccc21	1
CCCCc1cc(O)ccc1O	-1
C=CC(C)(O)CCC1C(=C)C(O)CC2C(C)(C)CCCC12C (stereo unspecified)	-1
C(=C\c1ccccc1)/COc1ccccc1C(N1CCOCC1)n1nc2ccccc2n1 (stereo unspecified)	1
O=[N+]([O-])c1ccc2nc3ccccc3cc2c1	1
CSC(=S)Nc1cccc(C)n1	1
O=Cc1cccc2ccc3ccccc3c12	1
CCOc1ccc2c(c1)c(CC(=O)O)cn2C	1
CCCC/C=C/C(CC)(C(=O)OCC)C(=O)OCC	-1
CCN(CC)C(=S)N/N=C(/C)c1cccc(/C(C)=N\NC(=S)N(CC)CC)n1	1
Cc1ccc(S(=O)(=O)NCCSS(=O)(=O)c2ccc(C)cc2)cc1	1
O=C1OC(=O)C2CCCC3CCCC1C32 (stereo unspecified)	1
S=C(Nc1ccc(Cl)cc1)SC1CCCCC1	1
c1ccc2c(c1)NC(NC1Nc3ccccc3N1)N2	-1
CC(=O)N/N=C/C(C)(C)C(C)(C)/C=N/NC(C)=O	-1
C[CH2][Sn]([CH2]C)([O]C(=O)C(OC(C)=O)c1ccccc1)[O]C(=O)C(OC(C)=O)c1ccccc1 (stereo unspecified)	1
COc1cc(C2SCC(=O)N2c2nnc(C(F)(F)F)s2)cc(OC)c1OC (stereo unspecified)	-1
FC(F)(F)c1nc2nc(Cl)c(Cl)nc2n1CCCN1CCOCC1	-1
CC(C)(Br)C(=O)/C=C/c1ccc(Cl)c(Cl)c1	-1
COc1ccccc1C(=O)OCC1CCCN2CCCCC12 (stereo unspecified)	1
